target: Toll-like receptor 2 (Homo sapiens) (UniProt O60603); test: Antagonist activity at human TLR2 expressed in HEK-blue cells assessed as inhibition of Pam3CSK4-induced NF-kappaB activation-mediated SEAP production at 50 uM after 24 hrs by Quanti-blue-based assay; assay type: cell-based
Sequence (O60603 whole entry): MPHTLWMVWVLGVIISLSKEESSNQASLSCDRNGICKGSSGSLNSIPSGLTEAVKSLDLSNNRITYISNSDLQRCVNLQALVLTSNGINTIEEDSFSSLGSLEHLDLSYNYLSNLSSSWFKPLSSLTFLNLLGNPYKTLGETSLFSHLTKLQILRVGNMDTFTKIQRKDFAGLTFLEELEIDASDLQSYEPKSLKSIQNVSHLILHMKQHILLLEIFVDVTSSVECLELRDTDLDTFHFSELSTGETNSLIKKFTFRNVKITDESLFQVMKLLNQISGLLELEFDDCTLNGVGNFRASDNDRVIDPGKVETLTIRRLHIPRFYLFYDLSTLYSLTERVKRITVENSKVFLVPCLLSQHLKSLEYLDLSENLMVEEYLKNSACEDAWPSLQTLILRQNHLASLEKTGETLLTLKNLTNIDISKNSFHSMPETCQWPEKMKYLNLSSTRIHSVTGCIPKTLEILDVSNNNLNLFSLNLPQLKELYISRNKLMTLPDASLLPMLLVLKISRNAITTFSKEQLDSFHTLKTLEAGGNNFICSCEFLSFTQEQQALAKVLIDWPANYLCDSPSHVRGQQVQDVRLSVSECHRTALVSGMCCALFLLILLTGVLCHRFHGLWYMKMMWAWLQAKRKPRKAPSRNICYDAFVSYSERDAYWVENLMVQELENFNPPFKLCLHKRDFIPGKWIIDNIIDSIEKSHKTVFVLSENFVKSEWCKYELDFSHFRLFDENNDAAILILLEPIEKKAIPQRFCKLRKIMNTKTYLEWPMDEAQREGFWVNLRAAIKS
propertyMeasured: inhibition (%)
The figure you give is taken to be in %; do not add the unit.

Problem: State the recorded inhibition for this entry: `Cc1cccc(/N=C/c2cccc(O)c2O)c1C(=O)O`
Solution: 21.2

Problem: Same thing, different compound: `FC(F)(F)c1ccc(/C=N/c2ccc(-c3ccccc3)cc2)cc1`
Solution: 0.75

Problem: Same thing, different compound: `COc1cccc(/C=N/c2cccc(C(=O)O)c2C)c1O`
Solution: 51.8

Problem: Same thing, different compound: `COc1cccc(/C=N/c2ccccc2C(=O)c2ccccc2)c1O`
Solution: 30

Problem: Same thing, different compound: `CCOc1cccc(/C=N/c2ccc(-c3ccccc3)cc2)c1O`
Solution: 64.1

Problem: Same thing, different compound: `COc1ccc(/N=C/c2cccc3ccccc23)cc1`
Solution: 1.97

Problem: Same thing, different compound: `COc1cccc(/N=C/c2ccc(C(F)(F)F)cc2)c1`
Solution: 0.28

Problem: Same thing, different compound: `Cc1cccc(/N=C/c2c(O)ccc3ccccc23)c1C(=O)O`
Solution: 0

Problem: Same thing, different compound: `COc1cccc(/C=N/c2ccc(-c3ccccc3)cc2)c1O`
Solution: 75.3

Problem: Same thing, different compound: `O=C(c1ccc(Cl)cc1)c1ccccc1/N=C/c1c(O)ccc2ccccc12`
Solution: 22.9

Problem: Same thing, different compound: `O=C(O)c1cccc(/N=C/c2cccc(O)c2O)c1`
Solution: 9.05

Problem: Same thing, different compound: `CCOc1cccc(/C=N/c2cccc(C(=O)O)c2C)c1O`
Solution: 38

Problem: Same thing, different compound: `O=C(O)c1ccc(C(F)(F)F)cc1/N=C/c1c(O)ccc2ccccc12`
Solution: 0

Problem: Same thing, different compound: `Cc1c(/N=C/C=C/c2ccccc2)cccc1C(=O)O`
Solution: 14.4

Problem: Same thing, different compound: `COc1cccc(/C=N/c2ccc(O)cc2)c1O`
Solution: 91.1

Problem: Same thing, different compound: `O=C(O)c1ccc(C(F)(F)F)cc1/N=C\c1c[nH]c2ccccc12`
Solution: 5.77

Problem: Same thing, different compound: `COc1cc(/C=N/c2cc(N)cc(C(=O)O)c2)ccc1O`
Solution: 0

Problem: Same thing, different compound: `Oc1ccc(/N=C/C=C/c2ccccc2)cc1`
Solution: 95.8

Problem: Same thing, different compound: `COc1cc(/C=N/c2ccc(-c3ccccc3)cc2)ccc1O`
Solution: 0

Problem: Same thing, different compound: `COc1ccc(/N=C/c2cccc(OC)c2OC)cc1`
Solution: 0

Problem: Same thing, different compound: `COc1cccc(/C=N/c2cccc(C(=O)O)c2C)c1`
Solution: 1.61

Problem: Same thing, different compound: `COc1ccc(/N=C\c2c[nH]c3ccccc23)cc1`
Solution: 0

Problem: Same thing, different compound: `COc1cccc(/C=N/c2cccc(C(=O)O)c2)c1O`
Solution: 23.7

Problem: Same thing, different compound: `CCOc1cccc(/C=N/c2cccc(C)c2C(=O)O)c1O`
Solution: 27.8

Problem: Same thing, different compound: `COc1ccc(/N=C/c2c(O)ccc3ccccc23)cc1`
Solution: 0

Problem: Same thing, different compound: `O=C(O)c1cccc(/N=C/c2c(O)ccc3ccccc23)c1`
Solution: 0

Problem: Same thing, different compound: `COc1ccc(/N=C/c2cccc(O)c2O)cc1`
Solution: 44.9

Problem: Same thing, different compound: `C(=N/c1ccc(-c2ccccc2)cc1)/c1c[nH]c2ccccc12`
Solution: 3.8

Problem: Same thing, different compound: `Cc1c(/N=C/c2c(O)ccc3ccccc23)cccc1C(=O)O`
Solution: 0

Problem: Same thing, different compound: `CCOc1cccc(/C=N/c2ccc(O)cc2)c1O`
Solution: 75.7

Problem: Same thing, different compound: `CCOc1cccc(/C=N/c2ccc(OC)cc2)c1O`
Solution: 35.2

Problem: Same thing, different compound: `Oc1ccc2ccccc2c1/C=N/c1ccc(-c2ccccc2)cc1`
Solution: 1.41

Problem: Same thing, different compound: `COc1cccc(/C=N/c2ccc(O)cc2)c1`
Solution: 56.4

Problem: Same thing, different compound: `O=C(c1ccccc1)c1ccccc1/N=C/c1c(O)ccc2ccccc12`
Solution: 0

Problem: Same thing, different compound: `C(=C\c1ccccc1)/C=N/c1ccc(-c2ccccc2)cc1`
Solution: 3.1

Problem: Same thing, different compound: `Cc1c(/N=C\c2c[nH]c3ccccc23)cccc1C(=O)O`
Solution: 2.58

Problem: Same thing, different compound: `Oc1ccc(/N=C/c2cccc3ccccc23)cc1`
Solution: 98.8

Problem: Same thing, different compound: `COc1ccc(/N=C/C=C/c2ccccc2)cc1`
Solution: 15.1

Origin of the recorded values: ChEMBL document CHEMBL4219143
